Test system: ATP;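 also: ATP exposure 15 min at 22 °C before imaging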
Assay procedure: switch fluorescence ratio, 500 uM ATP over buffer (Cy3 cluster intensity, sum of 5 cycles each) (fold (ratio)); higher = stronger signal-on switching upon ATP binding; sequences stand for … in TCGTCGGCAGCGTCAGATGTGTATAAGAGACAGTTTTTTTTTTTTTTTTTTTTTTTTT…TC
Condition parameters: aptamer strand: ATP DNA aptamer (quencher-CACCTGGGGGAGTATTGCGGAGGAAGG + anchor), 100 nM annealed; ATP concentration: 500 uM
The reader will find reported switch fluorescence ratio values listed item by item below.
Please give the numeric answer without any surrounding text.

GGTGAGGTGC
0.999
CTCGAGGGTA
1
ACTGGCAGGG
1.01

Returns the measured switch fluorescence ratio for the input sequence. Input: AGTGGAATTC
1.04
